- System: phosphorylated GSK3 (Ser9)
- experimental protocol: Cellular pGSK3 assay (phospho-GSK3 ELISA)
- Format: cell-based
- experimental parameters: Homo sapiens, MCF7 cells, compound incubated 48h
endpoint name: IC50

| substance smiles | reported result |
| --- | --- |
| c1ccc(-c2cn3nc(C4CCC4)nc3nc2-c2ccc(CN3CCC(c4n[nH]c(-c5ccccn5)n4)CC3)cc2)cc1 | < 1000 nM |
| c1ccc(-c2cn3nc(C4CC4)nc3nc2-c2ccc(CN3CCC(c4n[nH]c(-c5ccccn5)n4)CC3)cc2)cc1 | 1000 to 10000 nM |
| c1ccc(-c2cn3ccnc3nc2-c2ccc(CN3CCC(n4cnc(-c5ccccn5)c4)CC3)cc2)cc1 | 1000 to 10000 nM |

Sourced from patent EP2050748A1
